test details: Lipophilicity, logP of compound at 100 uM incubated for 90 mins by HPLC analysis
Format: physicochemical
For each record, write down the corresponding logP at […], 100 µM.

Tell us which logP at […], 100 µM value is on record for O=C(Nc1ccc(C(F)(F)F)c(F)c1)NC1CCN(C(=O)C2CCCOC2)CC1 (stereo not drawn)
3.84

Tell us which logP at […], 100 µM value is on record for CCC(=O)N1CCC(NC(=O)Nc2ccc(C(F)(F)F)c(F)c2)CC1
3.76

Tell us which logP at […], 100 µM value is on record for O=C(Nc1ccc(C(F)(F)F)c(F)c1)NC1CCN(C(=O)C2CC2)CC1
3.94

Tell us which logP at […], 100 µM value is on record for O=C(Nc1ccc(C(F)(F)F)cc1)NC1CCN(C(=O)c2cc[nH]c2)CC1
3.26

Tell us which logP at […], 100 µM value is on record for CC[C@H](C)C(=O)N1CCC(NC(=O)Nc2ccc(C(F)(F)F)cc2)CC1
3.84

Tell us which logP at […], 100 µM value is on record for O=C(Nc1ccc(C(F)(F)F)c(F)c1)NC1CCN(C(=O)C2CCOCC2)CC1
3.52

Tell us which logP at […], 100 µM value is on record for O=C(Nc1ccc(OC(F)(F)F)c(F)c1)NC1CCN(C(=O)N2CCOCC2)CC1
3.93

Tell us which logP at […], 100 µM value is on record for CCOC(=O)N1CCC(NC(=O)Nc2ccc(C(F)(F)F)c(F)c2)CC1
5.46

Where do these numbers come from? They come from ChEMBL document CHEMBL4699543.
